Molecular target: SOS-mediated nucleotide exchange on Ras (Homo sapiens, UniProt Q07889)
Sequence (Q07889 1-1333): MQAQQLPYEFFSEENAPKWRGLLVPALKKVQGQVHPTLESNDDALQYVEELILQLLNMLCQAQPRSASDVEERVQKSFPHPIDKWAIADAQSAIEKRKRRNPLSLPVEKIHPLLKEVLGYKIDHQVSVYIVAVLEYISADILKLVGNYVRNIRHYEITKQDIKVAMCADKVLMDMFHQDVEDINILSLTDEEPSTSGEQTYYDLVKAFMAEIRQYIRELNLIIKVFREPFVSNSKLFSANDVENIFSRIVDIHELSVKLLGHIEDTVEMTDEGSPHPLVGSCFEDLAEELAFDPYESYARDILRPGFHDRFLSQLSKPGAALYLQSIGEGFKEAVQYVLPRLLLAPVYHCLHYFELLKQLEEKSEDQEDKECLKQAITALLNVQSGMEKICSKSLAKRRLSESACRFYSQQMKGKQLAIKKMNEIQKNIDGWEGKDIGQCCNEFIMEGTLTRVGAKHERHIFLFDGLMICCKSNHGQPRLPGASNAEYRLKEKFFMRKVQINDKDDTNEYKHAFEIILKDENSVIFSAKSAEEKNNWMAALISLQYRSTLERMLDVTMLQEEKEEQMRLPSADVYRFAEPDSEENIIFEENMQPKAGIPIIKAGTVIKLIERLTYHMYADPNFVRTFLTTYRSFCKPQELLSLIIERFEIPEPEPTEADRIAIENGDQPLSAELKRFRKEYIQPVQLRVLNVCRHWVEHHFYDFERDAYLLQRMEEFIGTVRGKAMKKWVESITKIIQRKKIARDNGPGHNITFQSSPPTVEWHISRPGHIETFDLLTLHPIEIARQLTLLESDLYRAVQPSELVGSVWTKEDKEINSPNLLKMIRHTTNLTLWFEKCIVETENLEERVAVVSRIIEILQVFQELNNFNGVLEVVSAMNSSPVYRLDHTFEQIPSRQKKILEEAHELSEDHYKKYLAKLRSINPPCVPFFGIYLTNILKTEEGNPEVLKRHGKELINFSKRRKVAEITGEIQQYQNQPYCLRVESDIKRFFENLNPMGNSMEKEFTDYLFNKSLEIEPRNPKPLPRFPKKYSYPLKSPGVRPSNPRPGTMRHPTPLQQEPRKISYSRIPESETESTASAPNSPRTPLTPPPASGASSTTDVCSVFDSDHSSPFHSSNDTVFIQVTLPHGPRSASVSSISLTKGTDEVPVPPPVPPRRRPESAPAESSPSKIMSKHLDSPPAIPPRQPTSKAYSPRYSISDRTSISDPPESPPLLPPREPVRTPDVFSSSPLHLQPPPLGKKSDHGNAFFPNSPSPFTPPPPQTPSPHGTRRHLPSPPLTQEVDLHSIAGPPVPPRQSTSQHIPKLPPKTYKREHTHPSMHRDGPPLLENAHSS
Test: SOS-mediated nucleotide exchange on Ras (BODIPY-GDP fluorescence)
Details: Ras loaded with BODIPY-GDP, GTP and SOS added; EC50 from derived exchange rates
Procedure: A. SOS-Mediated Nucleotide Exchange on Ras Compounds of the present invention were tested for their ability to modify the rate at which Ras exchanges a labeled nucleotide guanosine diphosphate (GDP) analog for guanosine triphosphate (GTP). […] Changes in fluorescence indicating exchange of the labeled GDP for GTP are monitored over time. Raw fluorescence data was fit to a single exponential decay function and derived rates were plotted as mean values. […]
pEC50: −log10 of the molar value.
observationType: pEC50

- C[C@@H](Nc1nc(Nc2ccc(F)c(Cl)c2)nc2c(Br)cccc12)C1CC1: < 4.52
- CC(C)[C@@H](C)Nc1nc(Nc2cc(F)cc(F)c2)nc2ccccc12: 4.52 to 5.30
- C[C@@H](Nc1nc(Nc2ccc(F)c(Cl)c2)nc2ccccc12)C1CC1: 4.52 to 5.30
- C[C@@H](Nc1nc(Nc2ccc(F)c(Cl)c2)nc2c(C3=CCNCC3)cccc12)C(C)(C)C: 4.52 to 5.30
- C[C@@H](Nc1nc(NCc2ncco2)nc2c(C3=CCNCC3)cccc12)C1CC1: 4.52 to 5.30

// for each compound below, give its pEC50
1. C[C@@H](Nc1nc(Nc2ccc(F)c(Cl)c2)nc2c(NCCCN(C)C)cccc12)C1CC1
2. C[C@@H](Nc1nc(NCC2CCCCC2)nc2c(C3=CCN(C)CC3)cccc12)C1CC1
3. Fc1ccc(CNc2nc(NCc3ccco3)c3ccccc3n2)cc1

output:
1: 4.52 to 5.30; 2: 5.30 to 6.00; 3: 5.30 to 6.00

Batch request: pEC50 for each of the following compounds.
1. C[C@@H](Nc1nc(NCC2CCCCC2)nc2c(CCN)cccc12)C(C)(C)C
2. C[C@@H](Nc1nc(Nc2ccc(F)c(Cl)c2)nc2c(C#N)cccc12)C1CC1
3. c1ccc2c(NCC3CC3)nc(NCC3CCC3)nc2c1
4. C[C@@H](Nc1nc(NCC2CCCCC2)nc2ccccc12)C1CC1
5. C[C@@H](Nc1nc(Nc2ccc(F)c(Cl)c2)nc2c(NCCN(C)C)cccc12)C1CC1
6. Clc1cc(Cl)cc(Nc2nc(NCc3cccs3)c3ccccc3n2)c1
7. C[C@@H](Nc1nc(Nc2ccc(F)c(Cl)c2)nc2c(C(=N)N)cccc12)C1CC1

output:
["4.52 to 5.30", "< 4.52", "4.52 to 5.30", "5.30 to 6.00", "4.52 to 5.30", "> 6.00", "5.30 to 6.00"]

Dear reader, for each entry below, please note its pEC50.
1. Cc1cc(F)cc(Nc2nc(N[C@H](C)c3cccs3)c3cccc(CN)c3n2)c1
2. Cc1cc(F)cc(Nc2nc(N[C@H](C)C3CC3)c3cccc(CCN)c3n2)c1
3. NCCc1cccc2c(NC(C3CC3)C3CC3)nc(NCC3CCCCC3)nc12

output:
["4.52 to 5.30", "5.30 to 6.00", "5.30 to 6.00"]

====

Target: SOS-mediated nucleotide exchange on Ras (Homo sapiens)
Sequence (Q07889 1-1333): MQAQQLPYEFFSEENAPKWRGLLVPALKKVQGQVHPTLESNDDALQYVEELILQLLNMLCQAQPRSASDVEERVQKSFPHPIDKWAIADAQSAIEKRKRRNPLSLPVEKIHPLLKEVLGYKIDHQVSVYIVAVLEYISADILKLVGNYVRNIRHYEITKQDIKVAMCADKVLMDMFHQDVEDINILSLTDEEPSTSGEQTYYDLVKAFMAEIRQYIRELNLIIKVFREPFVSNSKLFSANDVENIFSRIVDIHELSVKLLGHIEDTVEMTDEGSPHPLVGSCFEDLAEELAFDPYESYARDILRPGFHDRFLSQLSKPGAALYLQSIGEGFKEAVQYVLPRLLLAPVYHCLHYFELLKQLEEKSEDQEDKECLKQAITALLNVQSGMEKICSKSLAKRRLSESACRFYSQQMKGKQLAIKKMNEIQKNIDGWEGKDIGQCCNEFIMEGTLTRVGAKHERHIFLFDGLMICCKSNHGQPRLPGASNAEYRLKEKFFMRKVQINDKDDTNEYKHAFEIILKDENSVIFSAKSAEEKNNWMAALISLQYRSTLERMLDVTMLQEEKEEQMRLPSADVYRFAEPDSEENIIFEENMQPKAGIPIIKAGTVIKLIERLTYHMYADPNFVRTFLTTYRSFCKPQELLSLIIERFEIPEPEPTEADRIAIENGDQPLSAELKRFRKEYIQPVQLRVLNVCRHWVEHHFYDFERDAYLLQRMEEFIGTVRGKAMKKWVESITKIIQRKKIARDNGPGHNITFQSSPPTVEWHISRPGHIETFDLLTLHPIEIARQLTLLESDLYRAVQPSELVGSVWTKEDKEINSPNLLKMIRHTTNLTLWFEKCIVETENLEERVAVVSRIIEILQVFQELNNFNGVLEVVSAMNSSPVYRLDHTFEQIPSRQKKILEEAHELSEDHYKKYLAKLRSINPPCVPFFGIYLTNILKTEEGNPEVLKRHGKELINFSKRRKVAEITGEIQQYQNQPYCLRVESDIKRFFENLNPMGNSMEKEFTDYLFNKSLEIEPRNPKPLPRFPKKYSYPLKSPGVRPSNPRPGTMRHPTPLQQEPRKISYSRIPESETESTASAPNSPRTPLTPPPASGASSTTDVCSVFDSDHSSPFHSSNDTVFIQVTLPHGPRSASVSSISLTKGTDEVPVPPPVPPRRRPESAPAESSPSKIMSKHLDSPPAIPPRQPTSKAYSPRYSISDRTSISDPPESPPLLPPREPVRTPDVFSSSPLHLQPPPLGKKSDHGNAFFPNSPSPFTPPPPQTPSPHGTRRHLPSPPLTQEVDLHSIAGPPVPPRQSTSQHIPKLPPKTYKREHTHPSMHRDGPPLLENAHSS
Assay: SOS-mediated nucleotide exchange on Ras (BODIPY-GDP fluorescence)
Details: Ras loaded with BODIPY-GDP, GTP and SOS added; EC50 from derived exchange rates
pEC50: −log10 of the molar value.
Give measured pEC50 for each item. Keep answers brief.

The examples below pair each entry with its known result.
- C[C@@H](Nc1nc(NCC2CCCCC2)nc2c(CN)cccc12)C(C)(C)C [Example 86]: 4.52 to 5.30
- C[C@@H](Nc1nc(NCC2CCCCCC2)nc2c(C3=CCNCC3)cccc12)C1CC1 [Example 103]: 4.52 to 5.30
- C[C@@H](Nc1nc(Nc2ccc(F)c(Cl)c2)nc2c(C3=CCNCC3)cccc12)c1cccs1 [Example 88]: 5.30 to 6.00

Attention now turns to another entry.
input: For SOS-mediated nucleotide exchange on Ras (Homo sapiens), provide pEC50 of C[C@@H](Nc1nc(NCC2CCC2)nc2c(C3=CCNCC3)cccc12)C1CC1 [Example 106] please.
output: > 6.00

Data credit: patent US11318137B2
